# credit: the supplement of paper PMC10567573

B1: HDAC6 (parent)
chain: QEGLLDRCVSFQARFAEKEELMLV

Variants of: B1
Test Protocol: protein stability index of a GFP-peptide fusion (GPS, HEK-293T) (PSI 1-6); higher = more stable;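 note: lentivirally expressed fusions sorted by FACS into six bins by GFP to DsRed ratio, PSI derived from sequencing read proportions per bin multiplied by bin number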
Run Parameters: c terminus: a fixed tail appended
Kindly return Criterion met if reported protein stability index is no lower than 2; return Criterion not met if it is lower.

Mutation Label: V9M
Answer Label: Criterion met
//
Mutation Label: L5S
Answer Label: Criterion not met
//
Mutation Label: A13E
Answer Label: Criterion not met
//
Mutation Label: C8F
Answer Label: Criterion not met
//
Mutation Label: Q12V
Answer Label: Criterion not met
//
Mutation Label: V9Q
Answer Label: Criterion met
//
Mutation Label: A16G
Answer Label: Criterion not met
//
Mutation Label: Q1K
Answer Label: Criterion not met
//
Mutation Label: F11A
Answer Label: Criterion met
//
Mutation Label: F15D
Answer Label: Criterion met
//
Mutation Label: L5I
Answer Label: Criterion met
//
Mutation Label: L23W
Answer Label: Criterion not met
//
Mutation Label: R7F
Answer Label: Criterion met
//
Mutation Label: L23D
Answer Label: Criterion met
//
Mutation Label: A16S
Answer Label: Criterion met
//
Mutation Label: M22F
Answer Label: Criterion not met
//
Mutation Label: E20S
Answer Label: Criterion met
//
Mutation Label: E17P
Answer Label: Criterion not met
//
Mutation Label: L5K
Answer Label: Criterion not met
//
Mutation Label: R14S
Answer Label: Criterion not met
//
Mutation Label: E17F
Answer Label: Criterion not met
//
Mutation Label: R7D
Answer Label: Criterion not met
